B1: TPR t1 (parent)
chain: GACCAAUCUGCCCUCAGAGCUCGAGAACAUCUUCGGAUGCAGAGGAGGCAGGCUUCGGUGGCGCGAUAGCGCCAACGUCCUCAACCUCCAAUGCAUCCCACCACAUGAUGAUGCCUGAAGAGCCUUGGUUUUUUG

# Variants of: B1
# ASSAY_METHOD_TEXT: polymerase ribozyme fitness, log enrichment relative to wild type (log ratio); higher = more active; in vitro selection for triplet polymerase activity
QUANTITY: polymerase ribozyme fitness (log ratio)

Request: Given the variant C8G G71A , what is its reported polymerase ribozyme fitness (log ratio)?
Result: 0.0703

Request: Given the variant G17U C102U , what is its reported polymerase ribozyme fitness (log ratio)?
Result: -4.64

Request: Given the variant G93A G113A , what is its reported polymerase ribozyme fitness (log ratio)?
Result: -0.607

Request: Given the variant A43U G93U , what is its reported polymerase ribozyme fitness (log ratio)?
Result: -2.7

Request: Given the variant C4G U129C , what is its reported polymerase ribozyme fitness (log ratio)?
Result: -1.99

Request: Given the variant A2U U9C C12A G51U C53A U55A G61U U78C G127U , what is its reported polymerase ribozyme fitness (log ratio)?
Result: -6.49

Request: Given the variant U9G C62A U92A C104U , what is its reported polymerase ribozyme fitness (log ratio)?
Result: -4.41

Request: Given the variant C28A G47A C79U G110C , what is its reported polymerase ribozyme fitness (log ratio)?
Result: -2.69

Request: Given the variant A46C C114U , what is its reported polymerase ribozyme fitness (log ratio)?
Result: -2.43

Request: Given the variant A2U C4A A43G G47C A68G G113A C124U , what is its reported polymerase ribozyme fitness (log ratio)?
Result: -6.42

Request: Given the variant U38A C49G U55G , what is its reported polymerase ribozyme fitness (log ratio)?
Result: -2.77

Request: Given the variant C22A A46C , what is its reported polymerase ribozyme fitness (log ratio)?
Result: -5.4

Request: Given the variant G71U C89G , what is its reported polymerase ribozyme fitness (log ratio)?
Result: -1.88

Request: Given the variant U14G U55C C70A , what is its reported polymerase ribozyme fitness (log ratio)?
Result: -3.8

Request: Given the variant C8G G52C C62U C89U , what is its reported polymerase ribozyme fitness (log ratio)?
Result: -1.08

Request: Given the variant C101U U109C , what is its reported polymerase ribozyme fitness (log ratio)?
Result: -3.93

Request: Given the variant C40G C101G C104U , what is its reported polymerase ribozyme fitness (log ratio)?
Result: -3.21

Request: Given the variant C20A G51A G61C , what is its reported polymerase ribozyme fitness (log ratio)?
Result: -6.95

Request: Given the variant G63A C73A A119C G120C , what is its reported polymerase ribozyme fitness (log ratio)?
Result: -1.42

Request: Given the variant G63C U78A , what is its reported polymerase ribozyme fitness (log ratio)?
Result: -0.719

Request: Given the variant G10C A27C U55C C70U , what is its reported polymerase ribozyme fitness (log ratio)?
Result: -7.04

Request: Given the variant C11G A18G C89U U96A , what is its reported polymerase ribozyme fitness (log ratio)?
Result: -4.23

Request: Given the variant A16C A37C U112C , what is its reported polymerase ribozyme fitness (log ratio)?
Result: -2.37

Request: Given the variant C62G A121U , what is its reported polymerase ribozyme fitness (log ratio)?
Result: 0.647

Request: Given the variant G71U C76A , what is its reported polymerase ribozyme fitness (log ratio)?
Result: -5.51

Request: Given the variant G17U G63C C73U , what is its reported polymerase ribozyme fitness (log ratio)?
Result: -1.67

Request: Given the variant A43C U55A C62U G93U U96G , what is its reported polymerase ribozyme fitness (log ratio)?
Result: -4.79

Request: Given the variant G47U G127C U130C , what is its reported polymerase ribozyme fitness (log ratio)?
Result: -2.06

Request: Given the variant A24U C72G , what is its reported polymerase ribozyme fitness (log ratio)?
Result: -5.64

Request: Given the variant G69U U112G C123G , what is its reported polymerase ribozyme fitness (log ratio)?
Result: 1.13

Request: Given the variant C13G C85U C88A C102A A105G C124U , what is its reported polymerase ribozyme fitness (log ratio)?
Result: -6.67

Request: Given the variant U87C A90G C94U , what is its reported polymerase ribozyme fitness (log ratio)?
Result: 0.339

Request: Given the variant C102U G113A , what is its reported polymerase ribozyme fitness (log ratio)?
Result: -2.86

Request: Given the variant G25A C72G , what is its reported polymerase ribozyme fitness (log ratio)?
Result: -5.55

Request: Given the variant "G117U" , what is its reported polymerase ribozyme fitness (log ratio)?
Result: -2.21

Request: Given the variant A46U C79A C115G , what is its reported polymerase ribozyme fitness (log ratio)?
Result: -5.77

Request: Given the variant A46C G51C , what is its reported polymerase ribozyme fitness (log ratio)?
Result: -4.63

Request: Given the variant C12U G47U A83C , what is its reported polymerase ribozyme fitness (log ratio)?
Result: -2.09

Request: Given the variant A18C C72U , what is its reported polymerase ribozyme fitness (log ratio)?
Result: -2.49

Request: Given the variant C8U C13A G71U C79U , what is its reported polymerase ribozyme fitness (log ratio)?
Result: -1.19

Request: Given the variant G110U G120U , what is its reported polymerase ribozyme fitness (log ratio)?
Result: -2.75

Request: Given the variant C89A A119U , what is its reported polymerase ribozyme fitness (log ratio)?
Result: -1.88

Request: Given the variant C12G A75U C94G , what is its reported polymerase ribozyme fitness (log ratio)?
Result: -1.33

Request: Given the variant C73U C79G G113U , what is its reported polymerase ribozyme fitness (log ratio)?
Result: -5.88

Request: Given the variant C15G G77C , what is its reported polymerase ribozyme fitness (log ratio)?
Result: -2.39

Request: Given the variant C4U A6U G45A C80U C101A , what is its reported polymerase ribozyme fitness (log ratio)?
Result: -3.66

From: the RNAGym collection of RNA variant scans (doi:10.1073/pnas.2313332121)
